The origin of these recorded values is the supplement of paper PMC10567573.

B1: FAM189A2 (parent)
chain: CALNALTTTVCLVAAALRYLQIFA

# Variants of: B1
# PROCEDURE DETAILS: protein stability index of a GFP-peptide fusion (GPS, HEK-293T) (PSI 1-6); higher = more stable;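 also: lentivirally expressed fusions sorted by FACS into six bins by GFP to DsRed ratio, PSI derived from sequencing read proportions per bin multiplied by bin number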
# CONDITION NOTES: c terminus: a fixed tail appended

- SEQUENCE ENTRY: "CALNALTTTVCHVAAALRYLQIFA [L12H]"
  protein stability index: 3.28
- SEQUENCE ENTRY: "CALNALTTTVCLVAAALRHLQIFA [Y19H]"
  protein stability index: 1.98
- SEQUENCE ENTRY: "CALNALTTQVCLVAAALRYLQIFA [T9Q]"
  protein stability index: 3.59
- SEQUENCE ENTRY: "CALAALTTTVCLVAAALRYLQIFA [N4A]"
  protein stability index: 1.84
- SEQUENCE ENTRY: "CAANALTTTVCLVAAALRYLQIFA [L3A]"
  protein stability index: 3.13
- SEQUENCE ENTRY: "CALNALTTSVCLVAAALRYLQIFA [T9S]"
  protein stability index: 3.11
- SEQUENCE ENTRY: "CALNALTTTNCLVAAALRYLQIFA [V10N]"
  protein stability index: 2.53
- SEQUENCE ENTRY: "CALNALTTTVCLVAAALCYLQIFA [R18C]"
  protein stability index: 3.91
- SEQUENCE ENTRY: "CALNALKTTVCLVAAALRYLQIFA [T7K]"
  protein stability index: 1.87
- SEQUENCE ENTRY: "CALNALTTYVCLVAAALRYLQIFA [T9Y]"
  protein stability index: 2.69
- SEQUENCE ENTRY: "CALNALTTTVCLSAAALRYLQIFA [V13S]"
  protein stability index: 2.06
- SEQUENCE ENTRY: "CALNALTTTVCLVFAALRYLQIFA [A14F]"
  protein stability index: 3.14
- SEQUENCE ENTRY: "CALNALTTTVCLVAAALGYLQIFA [R18G]"
  protein stability index: 3.25
- SEQUENCE ENTRY: "CAKNALTTTVCLVAAALRYLQIFA [L3K]"
  protein stability index: 1.92
- SEQUENCE ENTRY: "CALNALATTVCLVAAALRYLQIFA [T7A]"
  protein stability index: 3.07
- SEQUENCE ENTRY: "CALNALTTTVCLVAAALRCLQIFA [Y19C]"
  protein stability index: 3.41
- SEQUENCE ENTRY: "CALNALTTTHCLVAAALRYLQIFA [V10H]"
  protein stability index: 3.15
- SEQUENCE ENTRY: "CALNALTTTMCLVAAALRYLQIFA [V10M]"
  protein stability index: 1.98
- SEQUENCE ENTRY: "CALNALTTTVCLVAAALRYLQIFM [A24M]"
  protein stability index: 2.65
- SEQUENCE ENTRY: "CALNNLTTTVCLVAAALRYLQIFA [A5N]"
  protein stability index: 2.07
- SEQUENCE ENTRY: "CALNALTTTVCLVAAALRYLQICA [F23C]"
  protein stability index: 3.26
- SEQUENCE ENTRY: "CALNALTTTVCLVAAAFRYLQIFA [L17F]"
  protein stability index: 3.04
- SEQUENCE ENTRY: "CALNALTTTVCLVAAALRYLQISA [F23S]"
  protein stability index: 3.01
- SEQUENCE ENTRY: "CALNALTTTVLLVAAALRYLQIFA [C11L]"
  protein stability index: 3.18
- SEQUENCE ENTRY: "CALNALTTTVCLVAAAQRYLQIFA [L17Q]"
  protein stability index: 2.57
- SEQUENCE ENTRY: "CALNALTTTVCLVAAAWRYLQIFA [L17W]"
  protein stability index: 3.15
- SEQUENCE ENTRY: "CALNALTTTVCLVMAALRYLQIFA [A14M]"
  protein stability index: 3.17
- SEQUENCE ENTRY: "CALNYLTTTVCLVAAALRYLQIFA [A5Y]"
  protein stability index: 3.68
- SEQUENCE ENTRY: "CALNALTTTVCLVAAALRYLQAFA [I22A]"
  protein stability index: 1.99
- SEQUENCE ENTRY: "CALNALTTTVCLVAAALRYLQIFE [A24E]"
  protein stability index: 2.8
- SEQUENCE ENTRY: "CALNALTTTVCLVAAALRYLQIFN [A24N]"
  protein stability index: 1.88
- SEQUENCE ENTRY: "CALNALTTTVCTVAAALRYLQIFA [L12T]"
  protein stability index: 2.96
- SEQUENCE ENTRY: "CALNALTTTVCLFAAALRYLQIFA [V13F]"
  protein stability index: 3.5
- SEQUENCE ENTRY: "CALNADTTTVCLVAAALRYLQIFA [L6D]"
  protein stability index: 3.49
- SEQUENCE ENTRY: "CALNALTTTVCLVASALRYLQIFA [A15S]"
  protein stability index: 3.48
- SEQUENCE ENTRY: "CALNALTTTVCLVAAWLRYLQIFA [A16W]"
  protein stability index: 1.55
